System: B16-F10 murine melanoma
Test: In vitro cytotoxicity assay, B16-F10 murine melanoma
Assay type: cell-based
Details: Mus musculus, B16-F10, B16-F10 murine melanoma; two values per compound; four-fold serial dilution; read-out: In vitro cytotoxicity IC50, B-16-F10
property.name: IC50 (µg/mL)
One number for each entry, in µg/mL.

// solved cases for IC50 follow
-- ask So what does the record say about IC50 for COc1cc([C@@H]2c3cc4c(cc3[C@@H](O[C@@H]3O[C@@H]5CO[C@@H](C)O[C@H]5[C@H](O)[C@H]3O)[C@H]3COC(=O)[C@H]23)OCO4)cc(NC(C)=O)c1O [Example 7, 3'-Acetylamino-3'-desmethoxy etoposide] ?
-- reply 54

-- ask Return reported IC50; argument: COc1ccc(C=Nc2cc([C@@H]3c4cc5c(cc4[C@@H](O[C@@H]4O[C@@H]6CO[C@@H](C)O[C@H]6[C@H](O)[C@H]4O)[C@H]4COC(=O)[C@H]34)OCO5)cc(OC)c2O)cc1 [Example 20]
-- reply 13.3

---
-- ask Sample C[C@@H]1OC[C@H]2O[C@@H](O[C@@H]3c4cc5c(cc4[C@@H](C4=CC(=O)C(=O)C(NC(=O)NCCCl)=C4)[C@H]4C(=O)OC[C@@H]43)OCO5)[C@H](O)[C@@H](O)[C@@H]2O1 [Example 29] — what was its IC50?
-- reply 39
